The reported measurements were obtained from patent US11478471B2.

# assay.protocol: Toxicokinetics in the 28 day dog study of DIO-902 (with racemic ketoconazole group a)
# measurement.parameters: female, beagle, plasma, po, 40 mg/kg, Drug concentration in plasma, dogs, group a: 40 mg/kg oral, day 1, F, 1 h
observable: concentration at 1 h (ng/mL)
The figure you give is taken to be in ng/mL; do not add the unit.

Report measured concentration at 1 h; entry is CC(=O)N1CCN(c2ccc(OCC3COC(Cn4ccnc4)(c4ccc(Cl)cc4Cl)O3)cc2)CC1 (racemic) [Racemic ketoconazole]
4290

---

# assay.protocol: Toxicokinetics in the 28 day dog study of DIO-902 (with racemic ketoconazole group a);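 note: beagle dogs dosed orally once daily within a 28-day GLP study, 3 animals per sex per group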
# measurement.parameters: male, beagle, plasma, po, 40 mg/kg, Drug concentration in plasma, dogs, group a: 40 mg/kg oral, day 1, M, 0 h
observable: concentration at 0 h

Report measured concentration at 0 h; entry is CC(=O)N1CCN(c2ccc(OCC3COC(Cn4ccnc4)(c4ccc(Cl)cc4Cl)O3)cc2)CC1 (racemic) [Racemic ketoconazole]
< 250 ng/mL
